Biological target: recombinant human FAP (Homo sapiens (Human), UniProt Q12884)
Sequence (Q12884 whole entry): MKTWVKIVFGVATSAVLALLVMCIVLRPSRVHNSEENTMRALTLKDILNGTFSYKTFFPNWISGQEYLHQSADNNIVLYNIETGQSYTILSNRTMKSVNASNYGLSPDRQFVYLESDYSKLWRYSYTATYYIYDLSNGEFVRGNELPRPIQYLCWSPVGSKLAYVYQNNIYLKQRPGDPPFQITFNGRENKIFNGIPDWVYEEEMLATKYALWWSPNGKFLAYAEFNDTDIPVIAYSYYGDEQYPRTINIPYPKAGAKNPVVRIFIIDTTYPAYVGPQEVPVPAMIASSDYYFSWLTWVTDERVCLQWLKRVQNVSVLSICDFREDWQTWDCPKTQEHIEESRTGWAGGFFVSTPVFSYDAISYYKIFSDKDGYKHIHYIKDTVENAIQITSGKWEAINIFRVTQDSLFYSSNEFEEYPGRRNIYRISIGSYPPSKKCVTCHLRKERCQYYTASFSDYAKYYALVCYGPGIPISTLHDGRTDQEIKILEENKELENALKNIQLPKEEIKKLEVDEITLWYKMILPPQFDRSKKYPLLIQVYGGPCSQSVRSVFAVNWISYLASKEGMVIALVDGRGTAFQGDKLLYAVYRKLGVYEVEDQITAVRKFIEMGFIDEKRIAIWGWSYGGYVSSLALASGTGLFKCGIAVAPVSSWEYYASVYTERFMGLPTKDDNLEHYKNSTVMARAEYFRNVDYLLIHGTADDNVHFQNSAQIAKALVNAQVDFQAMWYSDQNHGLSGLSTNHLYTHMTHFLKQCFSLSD
Assay: In vitro enzyme IC50 assay, FAP
Type: biochemical
Conditions: pH2.0
// reported FAP Selectivity, IC50(PREP)/IC50(FAP) for each item listed
Respond with the number and no other words.

>  <Chemical String>
C[C@@H](NC(=O)c1ccc(F)cc1)C(=O)N1CCC[C@H]1B(O)O

>  <System Tested>
recombinant human FAP (Homo sapiens (Human), UniProt Q12884)

>  <FAP Selectivity, IC50(PREP)/IC50(FAP)>
19

$$$$
>  <Chemical String>
C[C@@H](NC(=O)c1cccc(OCF)c1)C(=O)N1CCC[C@H]1B(O)O

>  <System Tested>
recombinant human FAP (Homo sapiens (Human), UniProt Q12884)

>  <FAP Selectivity, IC50(PREP)/IC50(FAP)>
0.37

$$$$
>  <Chemical String>
C[C@@H](NC(=O)c1cc(F)ncc1F)C(=O)N1CCC[C@H]1B(O)O

>  <System Tested>
recombinant human FAP (Homo sapiens (Human), UniProt Q12884)

>  <FAP Selectivity, IC50(PREP)/IC50(FAP)>
14

$$$$
>  <Chemical String>
C[C@@H](NC(=O)c1ccnc(F)c1F)C(=O)N1CCC[C@H]1B(O)O

>  <System Tested>
recombinant human FAP (Homo sapiens (Human), UniProt Q12884)

>  <FAP Selectivity, IC50(PREP)/IC50(FAP)>
15

$$$$
>  <Chemical String>
C[C@@H](NC(=O)c1ccc(OCF)cc1)C(=O)N1CCC[C@H]1B(O)O

>  <System Tested>
recombinant human FAP (Homo sapiens (Human), UniProt Q12884)

>  <FAP Selectivity, IC50(PREP)/IC50(FAP)>
8.3

$$$$
>  <Chemical String>
C[C@@H](NC(=O)c1c(F)c(F)c(F)c(F)c1F)C(=O)N1CCC[C@H]1B(O)O

>  <System Tested>
recombinant human FAP (Homo sapiens (Human), UniProt Q12884)

>  <FAP Selectivity, IC50(PREP)/IC50(FAP)>
2.7

$$$$

Request: Observed FAP Selectivity, IC50(PREP)/IC50(FAP) on recombinant human FAP (Homo sapiens (Human), UniProt Q12884) for "C[C@@H](NC(=O)c1ccc(F)cc1F)C(=O)N1CCC[C@H]1B(O)O" , please.
Result: 1.1

Request: Observed FAP Selectivity, IC50(PREP)/IC50(FAP) on recombinant human FAP (Homo sapiens (Human), UniProt Q12884) for "C[C@@H](NC(=O)c1cc(F)nc(F)c1)C(=O)N1CCC[C@H]1B(O)O" , please.
Result: 23

Request: Observed FAP Selectivity, IC50(PREP)/IC50(FAP) on recombinant human FAP (Homo sapiens (Human), UniProt Q12884) for "C[C@@H](NC(=O)c1ccccc1F)C(=O)N1CCC[C@H]1B(O)O" , please.
Result: 5.6

Data origin, for the record: patent US20240366807A1
